# subject of test: Transforming acidic coiled-coil-containing protein 3 (Homo sapiens) (UniProt Q9Y6A5)
# test: inhibitors of ARNT PAS-B binding to TACC3 – biochemical, AlphaScreen, single concentration, primary screen (AID 623870)
# condition summary: AlphaScreen His-ARNT PAS-B/GST-TACC3 binding, luminescence; at 9.99 µM; TACC3 fragment carries E629A point mutation
The whole screen tested about 390,000 compounds, of which about 2,600 (0.67%) were called active.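 Rule for the calls: active = mean inhibition of replicates at least 50% and at least half of replicates each reaching 50%; inconclusive = half or more replicates reach 50% but mean below 50%; inactive = the rest.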 Many of the other results were omitted from the sample, so actives are more common in it than they were.
Labels: active, inactive

chemical string: CN(c1ccccc1)S(=O)(=O)c1ccc(C(=O)N2CCN(c3ccccc3Cl)CC2)cc1
subject of test: Transforming acidic coiled-coil-containing protein 3 (Homo sapiens) (UniProt Q9Y6A5)
category: inactive
//
chemical string: Cc1c(NC(=O)CSc2cccc3cccnc23)c(=O)n(-c2ccccc2)n1C
subject of test: Transforming acidic coiled-coil-containing protein 3 (Homo sapiens) (UniProt Q9Y6A5)
category: active
//
chemical string: Cc1n[nH]c(=O)nc1N/N=C/c1cccs1
subject of test: Transforming acidic coiled-coil-containing protein 3 (Homo sapiens) (UniProt Q9Y6A5)
category: active
//
chemical string: O=C(CSc1ccc(-c2ccc(-n3cccn3)cc2)nn1)Nc1ccc([N+](=O)[O-])cc1
subject of test: Transforming acidic coiled-coil-containing protein 3 (Homo sapiens) (UniProt Q9Y6A5)
category: inactive
//
chemical string: CN(c1ccc(C(=O)N2CCc3ccccc3C2)cc1)S(C)(=O)=O
subject of test: Transforming acidic coiled-coil-containing protein 3 (Homo sapiens) (UniProt Q9Y6A5)
category: active
//
chemical string: CCCN1[C@@H]2c3ccc(-c4ccccc4OC)c(=O)n3C[C@H]1[C@H](CO)[C@H]2C(=O)NCc1ccccn1
subject of test: Transforming acidic coiled-coil-containing protein 3 (Homo sapiens) (UniProt Q9Y6A5)
category: inactive
//
chemical string: Cc1ccccc1NC(=O)CSC1=NCCN1
subject of test: Transforming acidic coiled-coil-containing protein 3 (Homo sapiens) (UniProt Q9Y6A5)
category: inactive
//
chemical string: C[C@@H]1CN([C@H](C)CO)S(=O)(=O)c2ccc(C#CCN(C)C)cc2O[C@@H]1CN(C)C(=O)CN(C)C
subject of test: Transforming acidic coiled-coil-containing protein 3 (Homo sapiens) (UniProt Q9Y6A5)
category: inactive
//
chemical string: Cc1c(NC(=O)CN2C(=O)C(=O)N(Cc3ccccc3)C2=O)c(=O)n(-c2ccccc2)n1C
subject of test: Transforming acidic coiled-coil-containing protein 3 (Homo sapiens) (UniProt Q9Y6A5)
category: inactive
//
chemical string: COc1cccc(N(CC(=O)N2CCc3ccccc3C2)S(C)(=O)=O)c1
subject of test: Transforming acidic coiled-coil-containing protein 3 (Homo sapiens) (UniProt Q9Y6A5)
category: inactive
